Study the reported IC50 values for 15-hydroxyprostaglandin dehydrogenase [NAD(+)] (Homo sapiens) given below; they originate from different publications.
measured_metric: IC50 (µM)

                                 compound   value
0  Cc1cc(/C=C2\SC(=O)NC2=O)ccc1OCC1CCCCC1  0.0498

P = CCOc1cc(/C=C2\SC(=O)NC2=O)ccc1OC(=O)CCCC1CCCCC1
Q = CC1(COc2ccc(/C=C3\SC(=O)NC3=O)cc2)CCCCC1
R = O=C1NC(=O)/C(=C/c2ccc(OCc3ccco3)cc2)S1
S = COc1ccc(/C=C2\SC(=O)NC2=O)cc1
Place the items in sequence of falling IC50. Output spec: a listing of the labels in the requested order.
S, R, Q, P
(S: 5.67 µM, R: 1.88 µM, Q: 0.547 µM, P: 0.0238 µM)

P = O=C1NC(=O)/C(=C/c2ccc(OCCC3CCCCC3)c(F)c2)S1
Q = CC1CCC(COc2ccc(/C=C3\SC(=O)NC3=O)cc2C(F)(F)F)CC1 (stereo not shown)
# returns the entry with the larger IC50; inputs P and Q Field: selected label. Fill in the label of the entry you choose.
P
(P: 0.0508 µM, Q: 0.0314 µM)

1 = O=C1NC(=O)C(=Cc2ccc(-c3ccc(C(=O)O)cc3)o2)S1
2 = O=C(CCCC1CCCCC1)Oc1ccc(/C=C2\SC(=O)NC2=O)cc1Cl
3 = CSCCC(=O)NCc1ccc(C)o1
4 = COc1ccc(/C=C2\SC(=O)NC2=O)cc1OCCC1CCCCC1
Order field: IC50 | Direction: descending (largest first) Please list each label once, in the requested order.
4, 3, 1, 2
(4: 1.16 µM, 3: 0.8 µM, 1: 0.3 µM, 2: 0.0202 µM)
